# METHOD DESCRIPTION: yeast display, Sf9 membrane polyspecificity reagent, FACS + sequencing; frameworks hold sequencing errors

ORDERED RESIDUES	polyreactivity (PSR sort gate)
QVQLVESGGGLVQAGGSLRLSCADSGRTIGLNGMGWYRQAPGKERELVAGISWTGGSTNYADSVKGRFTFSRDNEKNTVYLQINSLKPEDTAVYYCAADFVYYVVNDFGWSYAYEYWGQGTQVTVSS	low polyreactivity
QVQLVESGGGIVQAGRSLRLSCAASGRTFYYYVMGWYRQAPGKERELVAAISRGGRTYYADSVKGRFTISRDNAKNTVYLQMNSLKPEDTAVYYCNAVPRKSRHRYDYWGQGSQVTVSS	high polyreactivity
QVQLVESGGGLVQAGGSLRLSCAASGSTFDYYTMGWYRPAPGKERELVAAISSSGGSTYYADSVKGRFTISRDYAKNTVYLQMNSLKPEDTAVYYCAADPSPYGDEYDYWGQGTQVTVSS	low polyreactivity
QVQLVESGGGLVQAGGSLRLSCAASGSIFHRYAMGWYRQAPGKERELVAAISWRGSSTYYADSVKGRFTISRDNAKNTVYLQMNSLKPEDTAVYYCNARGGSRRRYDYWGQGTQVTVSS	high polyreactivity
QVQLVESGGGLVQAGGSLRLSCAASGRIFLWYAMGWYRQAPGKERELVAAISWDTGNTYYADSVKGRFTISRDNAKNTVYLQINSLKPEDTAVYYCNADNYEWGNNYGYWGQGTQVTVSS	low polyreactivity
QVQLVESGGGLVQAGGSLRLSCAASGIILYPYFMGWYIQAPGKERELVAAISYSGGSTYYADSVKGRFTISGDNAKNTVYLQMNSLKPEDTAVYYCAAVPVTSQTKYGYWGQGTQVTVSS	high polyreactivity
QVQLVESGGRLVQAGGSLSLSCAASGRTFGGYNMGWYRQAPGKERELVAAINWSGTTYYADSVKGRFTISRDNAKNTVYLQMNSLKPVDTAVYYCAASLVSYYGLARDSVDYWGQGTQVTVSS	low polyreactivity
QVQRVESGGGLVQAGGSLRLSCAASGRTFPWNVMGWYRQAPGKERELVAAISWSSGRTYYADSVKGRFTISRDNAKNTVYLQMNSLKPEDTAVYYCAAVYKVHSGLYEYWGQGTQVTVSS	high polyreactivity
QVQLVESGGGLVQAGGTLRLSCAASGIIIGSYAMGWYRQAPGKERELVAAITNGARTNYADSVKGRFTISRDNAKNTVYLQMNSLKPEDTAVYYCAADNYFDWYWLFFEYDYWGQGTQVTVSS	high polyreactivity
QFQLVESGGGLVQAGGSLRLSCAASGFIFGYNAMGWYRQAPGKERELVAAINWSGDITYYADSVKGRFTISRDNAKNTVYLQMNSLKPEDTAVYYCAADDYYIPSSWDFDYWGQGTQVTVSS	low polyreactivity
QVQLVESGGGLVQAGGSLRLSCAASGSIFGSYAMGWYRQAPGKEMELVAAISGSGGRTYYADSVKGRFTISRDNAKNTVYLKMNSLKPEDTAVYYCSAAYPRVTYKYGYYWGQGTQVTVSS	high polyreactivity
QVQLVESGGGLVQAGGSLRLSCAASGTTFYYYAMGWYRQAPGKEREFVAAIRFSGSRTYYADSVKGRFPISRDNAKNTVYLQMNSLIPEDTAVYYCARATLPSVSYYRKLFDYWGQGTHVTVSS	high polyreactivity
QVQLVESAGGLVQAGGSLRLSCAASGIIFDDNAKGWYRQAPGKERELVAAISGRGGSTYYADSVKGRFTISRDNAKNTVYLQMNSLKPEDTAVYYCAASTVRRGTAPYSGGGDYWGQGTQVTVSS	high polyreactivity
QVQLVESGGGLVQAGGSLRLSCAASGRTSGYYAMGWYRQAPGKERELVATISGNVGRTYYADSVKGRFTISRDNAKNTVYLQMNSLKPEDTAVYYCAARTYGPYDYWGQGTQVTVSS	low polyreactivity
QVQLVESGGGLVQAGGSLRLSCAASGRTFQGYSMGWYRQAPGKERELVAAISRSGGRTYYADSVKGRFTISRDNAKNTVYLQMNSLKPEDTAVYYCATDAFRDYGYWGQGTQVTVSS	high polyreactivity
QVQLVESGGGLIQAGGSLRLSCAASGIIFYPYTMGWYRQAPGKERELVAAIRQSGTSTYYADSVKGRFTISRDNAKNTVYLQMNSLKPEDTAVYYCAAPPYYSYDYWGQGTQVTVSS	low polyreactivity
QVQLVESGGGLVQAGGSLRLSCAASGSTFYYYAMGWYRQAPGKEMELVAAINWSGASTYYADSVKGRFTISRDNAKNTVYLQMNSLIPEDTAVYYCAAGYAGGYGVTFDYCGQGTQVTVSS	low polyreactivity
QVQLVESGGGLVQAGGSLRLSCAASGRIFPFYVMGWYRQAPGKERELVATINWSGGSTYYADSVKGRFTISRDNAKNTVYLQMNSLKPEDTAVYYCNAAPSDDYDYWGQGTQVTVSS	low polyreactivity
QVQLVESGGGLVQAGGSLRLSCAASGSIFVTNVMGWYRQAPGKERELVAVINSGGRTYYADSVKGRFTISRDNAKNTVYLQMNSLKPEDTAVYYCAKDSWSSFQSLYPEFDYWGQGTQVTVSS	low polyreactivity
QVQLVESGGGLVQAGGSLRLSCAASGFITPWYAMGWYRQAAGKEREWVAAIDWSGGSTYYADSVKGRFTISRDNAKNSVYLQMNSVKPEDTAVYYCAARYYTASVRAGRVRMYYWGQGTQVTVSS	high polyreactivity
QDQLVESGGGLVQAGGSLRISCAASGSTFFGYAMGWYRQAPGKERELVATISSGDSTNYADSVKGRFTFSRDNAKNTVYLQMNSLKPEDTAVFYCAAQGGDGVLALYYYWGQGTQVTVSS	low polyreactivity

All values here come from the nanobody polyreactivity screen of Harvey et al. (2022).
